# Test system: IL-1 production in LPS-stimulated PBMCs
# experiment: Inhibition of IL-1 production in LPS-stimulated PBMCs ("cell")
# Assay type: cell-based, human
# test-conditions: Homo sapiens, PBMC
Recorded IC50 values for a group of compounds are listed next.

// solved cases for IC50 follow
compound="NC(=O)C(c1cccc(-c2ccccc2CNCCO)n1)c1c(Cl)cccc1Cl (stereo not drawn)" meas_value="≥ 0.5 µM"
compound=O=C(CCl)Nc1ccc(C2=C3C=CC(Sc4ccc(F)cc4)=NN3CNC2=O)c(Cl)c1 meas_value="≤ 0.1 µM"
compound=O=c1ncn2nc(Sc3ccc(F)cc3)ccc2c1-c1c(Cl)cccc1Cl meas_value="0.1 to 0.5 µM"
compound=Cc1ccccc1-c1cccc(N(C(N)=O)c2c(Cl)cccc2Cl)n1 meas_value="≤ 0.1 µM"
compound=O=c1ncn2nc(Sc3ccccn3)ccc2c1-c1c(Cl)cccc1Cl meas_value="≥ 0.5 µM"

Here is the next item to consider.
Q. What measured IC50 goes with Cc1cc(F)ccc1SC1=NN2CNC(=O)C(c3c(Cl)cccc3Cl)=C2C=C1 ?
A. ≤ 0.1 µM

====

# study-system: activated p38 (Homo sapiens, UniProt Q16539)
# Sequence (Q16539 whole entry): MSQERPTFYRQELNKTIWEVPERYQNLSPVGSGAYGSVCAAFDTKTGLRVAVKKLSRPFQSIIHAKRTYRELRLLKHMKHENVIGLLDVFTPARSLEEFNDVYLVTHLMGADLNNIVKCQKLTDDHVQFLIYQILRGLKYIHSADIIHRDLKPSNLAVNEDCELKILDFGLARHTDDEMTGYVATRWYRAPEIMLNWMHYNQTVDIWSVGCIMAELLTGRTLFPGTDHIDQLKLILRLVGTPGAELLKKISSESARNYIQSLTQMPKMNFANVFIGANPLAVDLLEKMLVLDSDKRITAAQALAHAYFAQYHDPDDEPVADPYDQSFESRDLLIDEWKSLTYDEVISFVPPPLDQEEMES
# experiment: Inhibition of phosphorylation of EGF receptor peptide ("kinase")
# test-conditions: inhibition of phosphorylation of EGF receptor peptide by activated p38
Recorded IC50 values for a group of compounds are listed next.

compound="NC(=O)C(c1cccc(-c2ccc(C(F)(F)F)cc2)n1)c1c(Cl)cccc1Cl (stereo not drawn)" endpoint_name=IC50 meas_value="≥ 1 µM"
compound="NC(=O)C(c1cccc(-c2cccc(F)c2)n1)c1c(Cl)cccc1Cl (stereo not drawn)" endpoint_name=IC50 meas_value="0.1 to 1 µM"
compound="COc1cccc(-c2cccc(C(C(N)=O)c3c(F)cccc3Cl)n2)c1 (stereo not drawn)" endpoint_name=IC50 meas_value="≥ 1 µM"
compound=O=c1ncn2nc(Sc3cccc(F)c3)ccc2c1-c1c(Cl)cccc1Cl endpoint_name=IC50 meas_value="0.1 to 1 µM"
compound="CSc1ccc(-c2cccc(C(C(N)=O)c3c(Cl)cccc3Cl)n2)cc1 (stereo not drawn)" endpoint_name=IC50 meas_value="≥ 1 µM"
compound="Cc1cc(F)ccc1-c1cccc(C(C(N)=O)c2c(Cl)cc(N)cc2Cl)n1 (stereo not drawn)" endpoint_name=IC50 meas_value="≤ 0.1 µM"
compound=O=c1ncn2nc(Sc3ccccc3)ccc2c1-c1ccc(Cl)c(Cl)c1 endpoint_name=IC50 meas_value="≥ 1 µM"
compound=Cc1ccccc1Sc1ccc2c(-c3c(Cl)cccc3Cl)c(=O)ncn2n1 endpoint_name=IC50 meas_value="0.1 to 1 µM"

Here is the next item to consider.
Q. What measured IC50 goes with NC(=O)C(c1cccc(-c2ccsc2)n1)c1c(Cl)cccc1Cl (stereo not drawn) ?
A. 0.1 to 1 µM
